- measured.on: ΔF508-CFTR (Homo sapiens, UniProt P13569, DEL508-508)
- Construct: host or cells: CFBE41o-, doxycycline-inducible
- Sequence (P13569 with tags, fused parts or gaps DEL508-508): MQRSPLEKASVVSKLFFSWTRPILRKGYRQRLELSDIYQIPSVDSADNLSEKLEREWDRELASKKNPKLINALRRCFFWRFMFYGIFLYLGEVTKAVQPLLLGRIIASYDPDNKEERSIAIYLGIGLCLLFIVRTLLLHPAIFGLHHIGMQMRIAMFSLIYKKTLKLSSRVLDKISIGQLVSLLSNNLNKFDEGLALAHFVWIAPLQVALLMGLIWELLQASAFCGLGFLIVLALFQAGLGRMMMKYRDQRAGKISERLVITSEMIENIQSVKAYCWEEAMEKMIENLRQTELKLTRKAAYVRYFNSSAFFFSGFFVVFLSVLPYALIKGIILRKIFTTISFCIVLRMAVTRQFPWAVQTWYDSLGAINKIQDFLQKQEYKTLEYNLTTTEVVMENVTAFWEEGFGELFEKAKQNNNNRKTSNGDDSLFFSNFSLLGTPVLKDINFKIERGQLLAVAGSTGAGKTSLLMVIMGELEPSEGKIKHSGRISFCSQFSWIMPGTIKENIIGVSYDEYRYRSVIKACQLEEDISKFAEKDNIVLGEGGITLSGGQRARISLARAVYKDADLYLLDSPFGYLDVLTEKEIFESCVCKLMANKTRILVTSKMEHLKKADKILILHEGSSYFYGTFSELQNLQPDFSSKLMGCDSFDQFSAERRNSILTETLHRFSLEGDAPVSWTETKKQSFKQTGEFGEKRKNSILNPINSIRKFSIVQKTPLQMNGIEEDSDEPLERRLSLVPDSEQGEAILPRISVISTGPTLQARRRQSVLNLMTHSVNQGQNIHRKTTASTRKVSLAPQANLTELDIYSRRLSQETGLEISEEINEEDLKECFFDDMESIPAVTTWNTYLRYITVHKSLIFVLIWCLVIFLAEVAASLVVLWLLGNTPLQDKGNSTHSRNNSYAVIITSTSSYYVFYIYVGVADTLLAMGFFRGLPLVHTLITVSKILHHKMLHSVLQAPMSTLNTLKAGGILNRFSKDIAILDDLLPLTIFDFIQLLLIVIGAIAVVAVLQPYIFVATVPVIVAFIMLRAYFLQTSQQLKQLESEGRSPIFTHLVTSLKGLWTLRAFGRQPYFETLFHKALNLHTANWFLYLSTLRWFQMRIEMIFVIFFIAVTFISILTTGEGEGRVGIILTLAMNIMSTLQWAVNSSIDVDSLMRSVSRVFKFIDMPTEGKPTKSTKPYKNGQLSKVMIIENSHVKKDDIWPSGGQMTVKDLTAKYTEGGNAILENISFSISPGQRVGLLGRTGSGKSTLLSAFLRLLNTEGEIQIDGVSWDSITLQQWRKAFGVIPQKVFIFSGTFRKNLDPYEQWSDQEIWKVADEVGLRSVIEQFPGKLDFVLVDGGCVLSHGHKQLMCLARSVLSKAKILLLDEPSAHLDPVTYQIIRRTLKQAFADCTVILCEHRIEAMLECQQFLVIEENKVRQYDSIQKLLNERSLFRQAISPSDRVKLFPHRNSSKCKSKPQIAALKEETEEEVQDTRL
- method.summary: CFTR cell surface levels using HRP-tagged ΔF508-CFTR expressing CFBE cells, intrinsic corrector capacity
- Type: cell-based
- Set-up: concentration or dose not given beside the values
- conditions: HRP-tagged ΔF508-CFTR expressing CFBE41o- cells; compound alone (intrinsic corrector capacity); 20 hours at 33° C.
endpoint.name: % Activation (%)
Numeric answer only, unit % assumed.

// query Param item = COCC1CCN(c2cc(C(=O)NS(=O)(=O)N3CCC(N4CCC[C@@H]4COC)CC3)nc3c2c(C2CCC2)nn3-c2ccccc2)CC1 [Compound 395] ; retrieve measured % Activation.
// result 209.2

// query What would you report for COCC1CCN(c2cc(C(=O)NS(=O)(=O)CCN3CCOCC3)nc3c2c(C2CCC2)nn3-c2ccccc2)CC1 [Compound 267] ?
// result 274.8

// query Repeat for the following compound: COC1CCN(c2cc(C(=O)NS(C)(=O)=O)nc3c2c(C(C)C)nn3-c2ccnc(N3CCOCC3)c2)CC1 [Compound 187]
// result 160

###

- measured.on: ΔF508-CFTR (Homo sapiens, UniProt P13569, DEL508-508)
- Construct: host or cells: CFBE41o-, doxycycline-inducible
- method.summary: CFTR cell surface levels using HRP-tagged ΔF508-CFTR expressing CFBE cells, intrinsic corrector capacity
- Format: cell-based
- conditions: HRP-tagged ΔF508-CFTR expressing CFBE41o- cells; compound alone (intrinsic corrector capacity); 20 hours at 33° C.; read-out: EC50
- Text: Measuring CFTR Cell Surface Levels Using HRP-Tagged ΔF508-CFTR Expressing CFBE Cells The HRP-tagged ΔF508-CFTR cell assay measures the expression of CFTR-ΔF508 at the plasma membrane. […] When HRP-tagged ΔF508-CFTR is present at the plasma membrane, the HRP enzyme activity can be measured. The amount of CFTR-ΔF508 that can be rescued to the plasma membrane is correlated with the amount of functional enzyme that can be measured. […]
API: label(entry) gives T if the entry's EC50 is strictly smaller than 700 nM; on equality or larger values it gives F.

// query A record lists CC(C)c1nn(-c2cccc(N3CCOCC3)c2)c2nc(C(=O)NS(C)(=O)=O)cc(-c3ccc(N(C)C)nc3)c12 . Is its EC50 below 700 nM?
// result T

// query Input CC(C)c1nn(-c2ccc(F)cc2)c2nc(C(=O)NS(C)(=O)=O)cc(N3CCNC(C(F)(F)F)C3)c12 (centres unmarked)
// result F

// query Cool, now COCC1CCN(c2cc(C(=O)NS(C)(=O)=O)nc3c2c(C(C)C)nn3-c2ccnc(N3CCOCC3)n2)CC1
// result T

// query Would you kindly repeat that for CS(=O)(=O)NC(=O)c1cc(-c2ccc(N3CCC(C#N)CC3)nc2)c2c(C3CC(F)(F)C3)nn(-c3ccccc3)c2n1 ?
// result T

// query Same again, this time with CS(=O)(=O)NC(=O)c1cc(-c2ccc(N3CCC(C#N)CC3)nc2)c2c(C3CCC3)nn(-c3ccnc(N4CCOCC4)c3)c2n1
// result T

// query Query COCCN(C)c1cc(C(=O)NS(C)(=O)=O)nc2c1c(C(C)C)nn2-c1cccc(C)c1 next
// result F

// query Entry COCCN1CCN(C2CCN(c3cc(C(=O)NS(=O)(=O)N(C)C)nc4c3c(C3CCC3)nn4-c3ccc(F)cc3)CC2)CC1 please
// result T

// query Entry COC(C)(C)C1CCN(c2cc(C(=O)NS(C)(=O)=O)nc3c2c(C2CCC2)nn3-c2ccccc2)CC1 please
// result T

// query # repeat for CN(C)S(=O)(=O)NC(=O)c1cc(C2CCN(CC3CCOCC3)CC2)c2c(C3CCC3)nn(-c3ccc(F)cc3)c2n1
// result F

// query What do you have for CS(=O)(=O)NC(=O)c1cc(N2CCC3(CCO3)CC2)c2c(C3CCC3)nn(-c3ccccc3)c2n1 ?
// result T

// query Also CCS(=O)(=O)NC(=O)c1cc(-c2ccc(N3CCOCC3)cc2)c2c(C)nn(-c3cccc(F)c3)c2n1 ?
// result F

// query Here is the next compound: O=C(NS(=O)(=O)C1CC1)c1cc(N2CCC(N3CCOCC3)CC2)c2c(C3CCC3)nn(-c3ccc(F)cc3)c2n1
// result T

// query Thanks! And Cc1nn(C2CCCCC2)c2nc(C(=O)NS(C)(=O)=O)cc(-c3ccc(N4CCOCC4)nc3)c12 ?
// result F

// query Entry to check: CC(C)Oc1nccc(-n2nc(C3CCC3)c3c(N4CCC(N5CCOCC5)CC4)cc(C(=O)NS(=O)(=O)N(C)C)nc32)n1
// result T

###

- measured.on: ΔF508-CFTR (Homo sapiens, UniProt P13569, DEL508-508)
- Construct: host or cells: CFBE41o-, doxycycline-inducible
- method.summary: CFTR cell surface levels using HRP-tagged ΔF508-CFTR expressing CFBE cells, in the presence of a co-corrector
- Assay type: cell-based
- conditions: HRP-tagged ΔF508-CFTR CFBE cells, in the presence of 3 μM co-corrector; read-out: EC50
pEC50: −log10 of the molar value.
# pEC50 >= 7 gives 1 (yes), anything below gives 0 (no)

// query Kindly determine if pEC50 recorded for CN(C)S(=O)(=O)NC(=O)c1cc(N2CCC(N3CCN(C4CC4)CC3)CC2)c2c(C3CCC3)nn(-c3ccccc3)c2n1 is above or exactly 7.
// result 0 (no)

// query And then CCCN(C)S(=O)(=O)NC(=O)c1cc(N2CCC(N3CCN(C4CC4)CC3)CC2)c2c(C3CCC3)nn(-c3ccccc3)c2n1 , what is it?
// result 1 (yes)

// query What about this compound? COC1CCN(C2CCN(c3cc(C(=O)NS(=O)(=O)N4CC(F)C4)nc4c3c(C3CCC3)nn4-c3ccc(F)cc3)CC2)CC1
// result 0 (no)

// query Then what about the compound CC(C)c1nn(-c2cccc(N(C)C)c2)c2nc(C(=O)NS(C)(=O)=O)cc(-c3ccc(N(C)C4CCOCC4)nc3)c12 ?
// result 0 (no)

###

- measured.on: ΔF508-CFTR (Homo sapiens, UniProt P13569, DEL508-508)
- Construct: host or cells: CFBE41o-, doxycycline-inducible
- method.summary: CFTR cell surface levels using HRP-tagged ΔF508-CFTR expressing CFBE cells, intrinsic corrector capacity
- Type: cell-based
- conditions: HRP-tagged ΔF508-CFTR expressing CFBE41o- cells; compound alone (intrinsic corrector capacity); 20 hours at 33° C.; read-out: EC50
For each record, write down the corresponding EC50.
Answer with a number only, understood to be in nM.

// query Query (compound): CN(C)S(=O)(=O)NC(=O)c1cc(C2CCN(C3CCC(F)(F)CC3)CC2)c2c(C3CCC3)nn(-c3ccc(F)cc3)c2n1 ; field requested: EC50
// result 519

// query How about CCCN(C)S(=O)(=O)NC(=O)c1cc(N2CCC(N3CCOCC3)CC2)c2c(C3CCC3)nn(-c3ccccc3)c2n1 ?
// result 119

// query Another compound to check: CCS(=O)(=O)NC(=O)c1cc(-c2ccc(N3CCOCC3)cc2)c2c(C(C)C)nn(C3CCCOC3)c2n1 (stereo not shown)
// result 451

// query Same thing, different compound: CCOc1nccc(-n2nc(C3CCC3)c3c(N4CCC(N5CCOCC5)CC4)cc(C(=O)NS(=O)(=O)N(C)C)nc32)n1
// result 568

Taken from patent US10259810B2.
